Assay: in vitro
Conditions: human, liver microsomes
measurement-label: CLint scaled at 1 h, 1 µM (mL/min/kg)

CNC[C@@H]1OCc2ccccc2[C@@H]1Oc1ccccc1C(F)(F)F 10

[I] CNC[C@@H]1COc2ccccc2[C@@H]1Oc1ccccc1Cl
[II] CNC[C@@H]1OCc2ccccc2[C@@H]1Oc1ccc(O)cc1C
[III] CNC[C@@H]1OCc2ccccc2[C@@H]1Oc1cccc(F)c1C
rank_up(items): orders items by reported CLint scaled at 1 h, 1 µM in ascending numerical order. Give the order by naming the labels one after another as requested.
II, I, III
(II: 4 mL/min/kg, I: 9 mL/min/kg, III: 21 mL/min/kg)

====

Test: in vitro
Details: human, liver microsomes
measurement-label: CLint scaled at 1 h, 1 µM (mL/min/kg)

[1] CNC[C@@H]1OCc2ccccc2[C@@H]1Oc1ccccc1Cl
[2] CNCC[C@@H](Oc1ccccc1C)c1ccccc1
For 1 and 2 , which recorded CLint scaled at 1 h, 1 µM is lower? Reply with the label of the item you choose.
1
(1: 8 mL/min/kg, 2: 50 mL/min/kg)
